// data source = patent US20100150950A1

Biological target: T1, human CD70 expressed on the cell surface (human, UniProt P32970 1-193)
T1 construct: also called full length CD70 on transfected CHO cells
T1 sequence: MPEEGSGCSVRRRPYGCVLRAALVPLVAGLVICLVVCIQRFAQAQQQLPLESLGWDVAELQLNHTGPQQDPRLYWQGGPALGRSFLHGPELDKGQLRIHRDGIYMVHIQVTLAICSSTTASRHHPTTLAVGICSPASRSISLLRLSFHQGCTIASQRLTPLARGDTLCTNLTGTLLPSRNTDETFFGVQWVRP
Experiment: Scatchard analysis, 125I-labelled antibody on CHO cells transfected with full length CD70
pKd: −log10 of the molar value.
readout.label: pKd

Look up and state reported pKd for anti-CD70 human monoclonal antibody 8B5 (antibody, V domains shown, Human IgG from hybridoma) VH: QVQLVESGGGVVQPGRSLRLSCATSGFTFSDYGMHWVRQAPGKGLEWVAVIWYDGSNKYYADSVKGRFTISRDNSKKTLSLQMNSLRAEDTAVYYCARDSIMVRGDYWGQGTLVTVSS VL: DIQMTQSPSSLSASVGDRVTITCRASQGISSWLAWYQQKPEKAPKSLIYAASSLQSGVPSRFSGSGSGTDFTLTISSLQPEDFATYYCQQYNSYPLTFGGGTKVEIK
~8.29

Look up and state reported pKd for anti-CD70 human monoclonal antibody 10B4 (antibody, V domains shown, Human IgG from hybridoma) VH: QIQLVESGGGVVQPGRSLRLSCAASGFTFGYYAMHWVRQAPGKGLEWVAVISYDGSIKYYADSVKGRFTISRDNSKNTLYLQMNSLRAEDTAVYYCAREGPYSNYLDYWGQGTLVTVSS VL: AIQLTQSPSSLSASVGDRVTITCRASQGISSALAWYQQKPGKAPKFLIYDASSLESGVPSRFSGSGSGTDFTLTISSLQPEDFATYYCQQFNSYPFTFGPGTKVDIK
~8.80

Look up and state reported pKd for anti-CD70 human monoclonal antibody 2H5 (antibody, IgG1, V domains shown, Human IgG with kappa light chain; also called HuMAb 2H5; 2H5 IgG1) VH: QVQLVESGGGVVQPGRSLRLSCAASGFTFSSYIMHWVRQAPGKGLEWVAVISYDGRNKYYADSVKGRFTISRDNSKNTLYLQMNSLRAEDTAVYYCARDTDGYDFDYWGQGTLVTVSS VL: EIVLTQSPATLSLSPGERATLSCRASQSVSSYLAWYQQKPGQAPRLLIYDASNRATGIPARFSGSGSGTDFTLTISSLEPEDFAVYYCQQRTNWPLTFGGGTKVEIK
~8.68

Look up and state reported pKd for anti-CD70 human monoclonal antibody 18E7 (antibody, V domains shown, Human IgG from hybridoma) VH: QVQLVESGGGVVQPGRSLRLSCAASGFTFSDHGMHWVRQAPGKGLEWVAVIWYDGSNKYYADSVKGRFTISRDNSKNTLYLQMNSLRAEDTAVYYCARDSIMVRGDYWGQGTLVTVSS VL: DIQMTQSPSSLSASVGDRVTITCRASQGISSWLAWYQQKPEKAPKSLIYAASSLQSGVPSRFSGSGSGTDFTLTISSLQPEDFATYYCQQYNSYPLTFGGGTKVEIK
~8.82
